Target: MMP-8 (Homo sapiens (Human))
Sequence (P22894 100-262): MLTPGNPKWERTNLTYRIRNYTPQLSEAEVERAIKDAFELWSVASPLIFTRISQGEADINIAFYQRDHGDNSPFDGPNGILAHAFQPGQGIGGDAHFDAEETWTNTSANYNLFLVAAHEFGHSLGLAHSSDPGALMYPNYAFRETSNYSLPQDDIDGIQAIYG
Test: Enzyme inhibition, MMP-8 catalytic domain
Assay type: biochemical

[
  {
    "COMPOUND": "O=S(=O)(CC1CS1)c1ccc(Oc2ccc(O)cc2)cc1 (stereo not shown)",
    "Inhibition type, MMP-8": "non-competitive"
  },
  {
    "COMPOUND": "CCOC(=O)Nc1ccc(Oc2ccc(S(=O)(=O)CC3CS3)cc2)cc1 (stereo not shown)",
    "Inhibition type, MMP-8": "non-competitive"
  },
  {
    "COMPOUND": "COC(=O)Nc1ccc(Oc2ccc(S(=O)(=O)CC3CS3)cc2)cc1 (stereo not shown)",
    "Inhibition type, MMP-8": "non-competitive"
  }
]
